assay: Toxicity liver stage against HepG2, at 10uM; type: cell-based; parameters: test concentration 10 uM, cell line HepG2-A16-CD81EGFP; conditions: human, HepG2-A16-CD81EGFP cells; read-out: INHIBITION
Measured cytotoxicity at 10 µM, listed per entry.
Measured parameter: cytotoxicity at 10 µM

compound="CCc1ocnc1C(=O)N1CCC(C2CCN(c3ncccn3)CC2)C1 (stereo not drawn)" result=3.6%
compound=CC(=O)N1CCC(N2CCN3C(=O)N(c4ccccc4)C[C@H]3C2)CC1 result=1.35%
compound=Cc1nc[nH]c1CNCc1cccnc1N(C)C1CCCCC1 result=5.32%
compound=O=C(NCCc1cc2nc(-c3ccncc3)ccn2n1)C1CC1 result=5.82%
compound=COc1cccc(Cc2nc3c([nH]2)CC(C)(C)CNC3=O)c1OC result=-2.88%
compound=CN(Cc1nnc(-c2ccco2)o1)Cc1nc2c(s1)CCCC2 result=1.13%
compound=CC1=N[C@@]2(CC[C@@H]3CN(Cc4ccccc4C)C[C@@H]32)C(=O)N1CC1CC1 result=-2.6%
compound=CNC(=O)c1cn2cc(-c3ccc(F)cc3)n(CC=C(C)C)c(=O)c2n1 result=-52.2%
compound=Cc1nnsc1C(=O)NCC1CCN(c2ccccn2)CC1 result=11.9%
compound=CN1CCN([C@@H]2CCN(C3CCOCC3)[C@H]2Cc2cnn(C)c2)CC1 result=5.07%
compound="Cc1csc2c(C3CCCN(C(=O)CCCn4cncn4)C3)nc(C)n12 (stereo not drawn)" result=7.69%
compound="O=C(NCCn1cccc1)C(c1cccnc1)N1CCCC1 (stereo not drawn)" result=-54.5%
compound="CCn1ncnc1C(C)NC(=O)C1CCN(C(C)C)CC1 (stereo not drawn)" result=18.5%
compound="Cc1ccc(N2CCN(C3CCc4ccccc4C3)CC2)nn1 (stereo not drawn)" result=-0.75%
compound="O=S(=O)(Cc1ccccc1CN1CCOCC(O)C1)c1ccccc1 (stereo not drawn)" result=-22.8%
compound="CCCC(=O)N1CCOC2(COCCN(CC(=O)NC)C2)C1 (stereo not drawn)" result=-3.58%
compound=COc1cc(N2CCC3(CCCN3Cc3ccn(C)n3)CC2)ncn1 result=4.89%
compound="CC(C)CN1CCCC1c1cc[nH]n1 (stereo not drawn)" result=9.95%
compound="O=C(O)c1ccc(=O)n(CC(c2ccc(F)cc2)N2CCCCCC2)c1 (stereo not drawn)" result=1.31%
compound=CC(=O)NC[C@H]1OC[C@@H](NC2CCC(F)(F)CC2)[C@@H]1O result=-8.57%
compound="O=C(CS(=O)(=O)c1cccc[n+]1[O-])NC1CCCc2ccccc21 (stereo not drawn)" result=-3.46%
compound=COc1ccc(Br)cc1CC(=O)Nc1cc(C)n[nH]1 result=-0.405%
compound=O=C(NCCN1CCCCC1)c1ccn(-c2ccc(F)cc2)n1 result=-8.05%

###

assay: Toxicity liver stage against HepG2, at 10uM; format: cell-based; design: test concentration 10 uM, cell line HepG2-A16-CD81EGFP; details: human, HepG2-A16-CD81EGFP cells; read-out: INHIBITION
Measured parameter: cytotoxicity at 10 µM (%)

compound="CC(O)CCN(C)S(=O)(=O)Cc1ccc(Cl)c(Cl)c1 (stereo unspecified)" measured_parameter="cytotoxicity at 10 µM" number=3.92
compound=O=C(NCc1ccco1)[C@@H]1CC[C@@H]2[C@@H](CCN2CC2CC2)O1 measured_parameter="cytotoxicity at 10 µM" number=-4.48
compound="CC(=O)NCc1ccc(C(=O)N2CCCCC2Cn2cccn2)o1 (stereo unspecified)" measured_parameter="cytotoxicity at 10 µM" number=-4.22
compound=CC(=O)N1CCCN(C(=O)c2cnc(OC(C)C)c(Cl)c2)CC1 measured_parameter="cytotoxicity at 10 µM" number=6.02
compound=O=c1c2c[nH]c(N3CCCC3)nc-2cn1CCc1ccc(Cl)cc1 measured_parameter="cytotoxicity at 10 µM" number=11.9
compound="CS(=O)(=O)N1CCN(CC(O)COc2ccc(Cl)cc2)CC1 (stereo unspecified)" measured_parameter="cytotoxicity at 10 µM" number=-38.6
